# System: Plasmodium falciparum
# assay_protocol: Hit confirmation in dose-response curve in NF54 pLDH assay, at 72h
# Assay type: functional, organism-based
# Set-up: timepoint 72 hour
# measurement_context: NF54, Erythrocyte
measured_property: IC50 (nM)
Numbers only, in nM.

| chem_smiles | IC50 (nM) |
| --- | --- |
| Cc1cc(=O)[nH]c(-n2nc(C3CC3)cc2NC(=O)C(c2ccccc2)c2ccccc2)n1 | 2140 |
| CCOc1ccc(Nc2c3ccccc3nc3ccccc23)cc1 | 3470 |
| NC(=O)c1ccccc1NC(=O)C1CCN(c2cc(C3CC3)ncn2)CC1 | 8320 |
| COc1ccc(CNCc2ccc(C)cc2)cc1Cn1ccnc1 | 2690 |
| COc1ccc(CN(Cc2ccncc2)CC2CCN(C3CCN(C)CC3)CC2)c(F)c1 | 1450 |
| CC[C@H]1CN2C=NC(N3CCN(C(=O)Nc4cc(F)cc(F)c4)CC3)=CC2=N1 | 1260 |

Okay, next one:
Fill in: IC50 of COc1cc([C@H](CC(=O)NC2CCN(Cc3ccccc3)CC2)N2Cc3ccccc3C2=O)cc(OC)c1OC is ___
2750
